tested on: wheat germ agglutinin (Triticum aestivum), Alexa647-labelled; experiment: wheat germ agglutinin binders on compound microarrays, profiling panel, artefact control for SMM control-protein annotation, biochemical, small-molecule microarray, 635/667 nm fluorescence (AID 1140); conditions: WGA-A647 binding, 635 nm fluorescence, higher = more signal;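 also: score merges 667 nm feature emission with signal to noise over triplicate slides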

MOLECULE	composite z-score
COc1ccc([Si](C)(C)[C@@H]2[C@@H](CCn3cc(CCO)nn3)O[C@]3(C(=O)N(Cc4ccc(N5C(=O)c6cccc7cccc5c67)cc4)c4ccccc43)[C@H]2C)cc1	1.2
CCCCCN1CC=CC23O[C@@H]4/C=C\CCC(C)OC(=O)C4[C@H]2C(=O)N(CCO)[C@@H]3C1=O (some centres not stated)	-0.564
COC(=O)C1=CC(CCCO)=CC(C2CC2)N(Cc2cc3c(cc2Br)OCO3)C=C1C(=O)OC (configuration not stated)	1.4
COCCCNC(=O)[C@@]1(C)c2ccccc2C(=O)N(Cc2cc(F)cc(C(F)(F)F)c2)[C@H]1c1ccc(CO)cc1	-1.26
C=CCC(OC(C)=O)[C@@H]1[C@@H](N(Cc2cccc3ccccc23)C(=O)Cc2ccc(OC)cc2)c2cc(OCCCO)ccc2N1C(=O)Cc1ccc(OC)cc1 (some centres not stated)	0.349
C=C(/C(=C/C[C@H](OC(=O)c1ccncc1)c1cccc(OCCO)c1)c1cc(C(=O)OC)ccc1OC)C(C)C	0.844
CCN(CC)c1ccc(N2CC=CC34O[C@@H]5C=CCOC(=O)[C@@H]5[C@H]3C(=O)N(C(CO)C(C)C)[C@@H]4C2=O)cc1 (some centres not stated)	-1.13

Provenance of the data: PubChem BioAssay
